assay: Selectivity ratio of IC50 for human MCF7 cells to MIC for methicillin-resistant Staphylococcus aureus JCSC 4788; assay type: toxicity
propertyMeasured: Selectivity ratio

Value of measured Selectivity ratio for the entry CCCCCCCC(=O)c1c(O)cc(O)c2c1OC1=C(C(=O)C(C)(C)C(=O)C1(C)C)C2CC(C)C (stereo unspecified) : 39.9

---

assay: Selectivity ratio of IC50 for human SF268 cells to MIC for methicillin-resistant Staphylococcus aureus JCSC 4788; format: toxicity
propertyMeasured: Selectivity ratio
// return just the number, without any unit appended

Value of measured Selectivity ratio for the entry CCCCCCCC(=O)c1c(O)cc(O)c2c1OC1=C(C(=O)C(C)(C)C(=O)C1(C)C)C2CC(C)C (stereo unspecified) : 40.6
